Taken from ChEMBL document CHEMBL4028889.

system: PC-12; assay: Neuroprotective activity against etoposide-induced apoptosis in rat PC12 cells assessed as cell viability at 3 uM pretreated for 4 hrs followed by etoposide challenge measured after 48 hrs by PrestoBlue assay (reference value: 52.13 +/- 1.13%); type: functional; settings: read-out: Activity
Readout type: viability at 3 µM (%)

INSERT INTO results (molecule, readout_type, u, measurement) VALUES
  ('CCCCCCOC(=O)Nc1ccc(NCc2ccc(F)cc2)nc1N', 'viability at 3 µM', '%', 78.5),
  ('CCOC(=O)Nc1ccc(NCCc2ccc(F)cc2)nc1N', 'viability at 3 µM', '%', 59.3),
  ('CCOC(=O)Nc1ccc(NCc2ccccc2)nc1', 'viability at 3 µM', '%', 67.5),
  ('Nc1nc(NCc2ccc(F)cc2)ccc1NC(=O)OCc1ccccc1', 'viability at 3 µM', '%', 81.2),
  ('CCOC(=O)Nc1ccc(NCc2ccc(Cl)cc2)nc1N', 'viability at 3 µM', '%', 64.3),
  ('CCOC(=O)Nc1ccc(NCc2ccc(OC(F)(F)F)cc2)nc1N', 'viability at 3 µM', '%', 80.6),
  ('CCOC(=O)Nc1ccc(NCc2ccc(C)cc2)nc1', 'viability at 3 µM', '%', 64.3),
  ('CCOC(=O)Nc1ccc(NCc2ccc(F)cc2)nc1N [FLUPIRTINE]', 'viability at 3 µM', '%', 79.5),
  ('CCOC(=O)Nc1ccc(NCc2ccc(C(F)(F)F)nc2)nc1N', 'viability at 3 µM', '%', 81.6),
  ('CCOC(=O)Nc1ccc(NCc2ccc(C)cc2)nc1N', 'viability at 3 µM', '%', 136),
  ('C=CCOC(=O)Nc1ccc(NCc2ccc(F)cc2)nc1N', 'viability at 3 µM', '%', 84.9),
  ('CCOC(=O)Nc1cnc(NCc2ccc(F)cc2)cc1C', 'viability at 3 µM', '%', 53.8),
  ('CCOC(=O)Nc1ccc(NCc2ccc(C(F)(F)F)cc2)nc1N', 'viability at 3 µM', '%', 68.4),
  ('CCCOC(=O)Nc1ccc(NCc2ccc(F)cc2)nc1N', 'viability at 3 µM', '%', 46.7),
  ('Nc1nc(NCc2ccc(F)cc2)ccc1NC(=O)OCCCl', 'viability at 3 µM', '%', 53.9),
  ('CCOC(=O)Nc1ccc(NCc2ccccc2C(F)(F)F)nc1N', 'viability at 3 µM', '%', 82.8);

* * *

tested on: PC-12; assay: Neuroprotective activity against etoposide-induced apoptosis in rat PC12 cells assessed as increase in Bcl2/Bax ratio at 3 uM pretreated for 4 hrs followed by etoposide challenge measured after 48 hrs by Western blot method; assay type: functional, cell-based
Calls of active or inactive are those of the source. No cut-off for these calls is given here.
Readout type: Activity

INSERT INTO assay_data (structure_notation, measurement) VALUES
  ('C=CCOC(=O)Nc1ccc(NCc2ccc(F)cc2)nc1N', 'inactive'),
  ('CCOC(=O)Nc1ccc(OCc2ccc(C(F)(F)F)cc2)nc1N', 'inactive'),
  ('CCOC(=O)Nc1ccc(NCc2ccc(OC(F)(F)F)cc2)nc1N', 'inactive');

* * *

Overview of reported fold change (FC) across a group of molecules:
system: PC-12; assay: Induction of autophagy in rat PC12 cells at 3 uM after 48 hrs by MDC staining-based flow cytometric method relative to control; assay type: functional
Readout type: fold change (FC)

INSERT INTO assay_data (molecule, readout_type, value_prefix, measurement) VALUES
  ('CCOC(=O)Nc1ccc(NCc2ccc(F)cc2)cc1N [EZOGABINE]', 'fold change (FC)', '=', 2),
  ('CCOC(=O)Nc1ccc(NCc2ccc(Cl)cc2)nc1N', 'fold change (FC)', '>', 5),
  ('CCOC(=O)Nc1ccc(NCc2ccc(F)cc2)nc1N [FLUPIRTINE]', 'fold change (FC)', '=', 2),
  ('CCOC(=O)Nc1ccc(NCc2ccc(SC(F)(F)F)cc2)nc1N', 'fold change (FC)', '=', 8),
  ('C=CCOC(=O)Nc1ccc(NCc2ccc(F)cc2)nc1N', 'fold change (FC)', '=', 2),
  ('Nc1nc(NCc2ccc(F)cc2)ccc1NC(=O)OCc1ccccc1', 'fold change (FC)', '=', 3);
